Target: AR (gene 367)
Assay: ACEA_AR_antagonist_80hr: ACEA Biosciences xCELLigence Real-Time Cell Analysis on Androgen Receptor Antagonism for Proliferation (AID 2283787);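 note: 22Rv1 human prostate cancer cells with growth followed by electrical impedance; hits lower the impedance growth signal relative to DMSO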
Records with an inconclusive call do not appear. Active and inactive are the calls of the source. Rule for the calls: active = hit-call score of the fitted dose curve at least 0.9, where 1 is the maximum; inconclusive = response in the unintended direction; inactive = score below 0.9.
Outcomes you can answer with include only these: active, inactive

Worked examples, 6 compounds total:
> print(dat)
                                 cpd.smiles     class
1  O=C(O)Cn1c(=O)n(Cc2ccc(Br)cc2F)c(=O)c2ccc(Cl)cc21  inactive
2  COc1cc(C(=O)NC2CCN(C)CC2)ccc1Nc1ncc2c(n1)N(C1CCCC1)CC(F)(F)C(=O)N2C    active
3  Cc1occc1C(=O)Nc1ccc(C(=O)N2CCC(F)(F)/C(=C\C(=O)N3CCC(N4CCCCC4)CC3)c3ccccc32)cc1    active
4  CCN(Cc1cccnc1)C(=O)c1cccc(Cl)c1[C@]1(C)C(=O)N(Cc2ccc(OC)cc2OC)c2ccc(Cl)cc21    active
5            Cc1c2ccccc2c(C)c2c1ccc1ccccc12    active
6  NCc1cccc(C2CCN(C(=O)c3ccc(C#Cc4ccccc4F)o3)CC2)c1    active

# input for lookup
GET /call?item= CCCCCCCCCC(=O)O returns the recorded outcome of this test.
inactive

* * *

Read-out: TIMP metallopeptidase inhibitor 1 (TIMP1), TIMP1 (gene 7076)
Experiment: BSK_hDFCGF_TIMP1: BioMAP Diversity Plus: hDFCGF Assay for TIMP metallopeptidase inhibitor 1 (TIMP1) Biomarker Activity (AID 2283062)
Conditions: primary human foreskin fibroblasts; actives raise or lower the signal
The source made the active and inactive calls. How the source made its calls: active means hit-call score of the fitted dose curve at least 0.9, where 1 is the maximum; inactive means score below 0.9.
OUTCOME MEASURE: AC50

CPD SMILES	AC50
Cc1oc2c(NC(=O)c3c(Cl)cccc3Cl)cccc2c1C(C)(C)O	12.3 µM (active)
COc1ccc2cc(S(=O)(=O)N[C@H](CC(=O)N[C@H](Cc3ccc(CN4[C@H](C)CCC[C@@H]4C)cc3)C(=O)N(C)C(C)C)c3ccc4c(c3)OCO4)ccc2c1	37.4 µM (active)
Cc1cn([C@H]2C[C@H](N=[N+]=[N-])[C@@H](CO)O2)c(=O)[nH]c1=O	inactive
O=C(O)c1ccccc1-n1cc(C(=O)O)c(=O)c2cc(Nc3c(F)cc(F)cc3Cl)c(Cl)cc21	inactive
CC/C(=C(/CC)c1ccc(O)cc1)c1ccc(O)cc1	33.4 µM (active)
CCCCCCCCN(C)CCCCCCCC	inactive
CCN(CC)C(=O)c1cc(S(=O)(=O)Cc2ccccc2)c(N2CCC(c3ccccc3)CC2)cc1N(CC)CCN(C)C	inactive
O=C(Nc1ccc(Cl)cc1)Nc1ccc(Cl)c(Cl)c1	inactive

Pending molecule:
Entry CO[C@H]1/C=C/O[C@@]2(C)Oc3c(C)c(O)c4c(O)c(c(/C=N/N5CCN(C)CC5)c(O)c4c3C2=O)NC(=O)/C(C)=C\C=C\[C@H](C)[C@H](O)[C@@H](C)[C@@H](O)[C@@H](C)[C@H](OC(C)=O)[C@@H]1C , AC50 reported as inactive

* * *

Read-out: Broad substrate specificity ATP-binding cassette transporter ABCG2 (Homo sapiens)
Assay: LTEA_HepaRG_ABCG2: Life Technologies and Expression Analysis (LTEA) Assay for ABC Transporter (ABCG2) using HepaRG (AID 2283465)
Settings: mRNA level, 48 h; actives raise or lower the signal
The source made the active and inactive calls. How the source made its calls: active means hit-call score of the fitted dose curve at least 0.9, where 1 is the maximum; inactive means score below 0.9.
OUTCOME MEASURE: AC50

> print(dat)
                                   compound   observed.result
1                        Cc1ncc(CO)c(CO)c1O          inactive
2  Cc1cc2c(cc1C(F)(F)F)N(C(=O)Nc1ccc(Oc3cccnc3C)nc1)CC2    11 µM (active)
3                           CCCCCCCCCC(=O)O          inactive
4                  CN1C(=O)CC[C@H]1c1cccnc1          inactive
5  C[C@]12CC[C@@H]3c4ccc(O)cc4CC[C@H]3[C@@H]1CCC2=O  16.7 µM (active)

AC50 in this record for O=CCCCC=O : inactive

Measured AC50 of OC12N=C(c3ccccc3)SC1Cc1cc(Cl)ccc12 (centres undefined) : 16.7 µM (active)

// CCCCCCCCOC(=O)c1cc(O)c(O)c(O)c1 : AC50 value = inactive

Notebook: CC1=CC(=O)/C(=C(/C)O)C(=O)O1 , AC50 read as inactive

Measured AC50, CCCCCCCCN(C)CCCCCCCC : inactive

Entry under test: O=c1c(-c2ccc(O)cc2)coc2cc(O)cc(O)c12 . Its AC50 was inactive

Just so you know, measured AC50 for O=C(O)Cn1c(=O)n(Cc2ccc(Br)cc2F)c(=O)c2ccc(Cl)cc21 came out at inactive

C[C@]12CC[C@@H]3c4ccc(O)cc4CC[C@H]3[C@@H]1CC[C@H]2O has a reported AC50 of 5.42 µM (active)

# AC50 of Cc1ccc(C(C)C)cc1 = inactive
